target: human NPY Y5 receptor (Homo sapiens); construct: expressed in transfected cells; assay: Affinity for NPY Y5 receptor ([125I] peptide YY binding, CHO cell membranes); details: inhibition of specific [125I] peptide YY binding, membranes of CHO cells expressing NPY Y5 receptor
Endpoint name: IC50 (nM)
Answers are plain numbers, in nM.

Solved entries:
COC(=O)c1scc(NC(=O)C2CCC(NS(=O)(=O)C(C)(C)C)CC2)c1C(=O)OC (stereo not shown) [Compound I-143] :: 3.5
CC(C)(C)S(=O)(=O)NC1CCC(C(=O)Nc2ccc(F)c(F)c2)CC1 (stereo not shown) [Ia-138] :: 2.2
CC(C)(C)S(=O)(=O)NC1CCC(C(=O)Nc2ccc3ccsc3c2)CC1 (stereo not shown) [Ia-130] :: 0.21

// query Given the entry C[C@@H]1CN(c2ccc(NC(=O)C3CCC(NS(=O)(=O)C(C)(C)C)CC3)cc2Cl)C[C@H](C)O1 (stereo partly shown) [Ia-25] , report its measured IC50.
// result 1.1

====

Field: pIC50. Provide a value for each of the compounds that follow.
molecular target: human NPY Y5 receptor (Homo sapiens, UniProt Q15761); construct: expressed in transfected cells; assay: cAMP production inhibitory activity in CHO cells; format: cell-based; details: against 50 nM NPY inhibition of forskolin stimulated cAMP, CHO cells expressing human NPY Y5 receptor
Sequence (Q15761 whole entry): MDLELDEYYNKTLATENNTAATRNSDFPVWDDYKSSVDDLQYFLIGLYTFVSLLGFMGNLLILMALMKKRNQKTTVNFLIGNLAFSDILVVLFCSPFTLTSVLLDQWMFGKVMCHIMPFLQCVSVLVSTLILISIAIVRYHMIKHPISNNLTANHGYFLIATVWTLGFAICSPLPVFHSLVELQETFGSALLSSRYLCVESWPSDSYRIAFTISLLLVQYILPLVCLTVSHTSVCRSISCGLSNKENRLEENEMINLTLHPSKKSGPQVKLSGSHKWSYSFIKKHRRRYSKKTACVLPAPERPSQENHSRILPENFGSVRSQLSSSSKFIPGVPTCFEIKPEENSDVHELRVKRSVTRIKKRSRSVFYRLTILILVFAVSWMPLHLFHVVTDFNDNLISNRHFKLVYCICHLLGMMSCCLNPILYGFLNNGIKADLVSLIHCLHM
Numbers only, as −log10 of the molar value.

COCOc1cccc(NC(=O)C2CCC(NS(=O)(=O)C(C)(C)C)CC2)c1 (centres unmarked) [Compound I-162] :: 7.49
CCCCOc1ccc(NC(=O)C2CCC(NS(=O)(=O)C(C)(C)C)CC2)cc1 (centres unmarked) [Compound I-164] :: 8.23
CC(C)NC(=O)c1ccc(NC(=O)c2ccc(NS(=O)(=O)C(C)(C)C)cc2)cc1 [Ia-191] :: 6.66
CCCCOc1ccc(NC(=O)C2CCC(NS(=O)(=O)C(C)(C)C)CC2)cc1O (centres unmarked) [Compound I-166] :: 8.01
CCc1ccc(NC(=O)C2CCC(NS(=O)(=O)C(C)(C)C)CC2)cc1 (centres unmarked) [Ia-9] :: 7.96
CC(C)(C)S(=O)(=O)NC1CCN(C(=O)Nc2ccc3oc(=O)ccc3c2)CC1 [Ia-68] :: 6.74

// input: 7 compounds below; output: pIC50 for each
1. CC(C)(C)S(=O)(=O)NC1CCC(C(=O)Nc2ccc(-c3csnn3)cc2)CC1 (centres unmarked) [Compound I-79]
2. Cn1cc(Br)c(-c2cccc(NC(=O)C3CCC(NS(=O)(=O)C(C)(C)C)CC3)c2)n1 (centres unmarked) [Compound I-131]
3. CC(C)(C)S(=O)(=O)NC1CCC(C(=O)Nc2ccc(-c3cccs3)cc2)CC1 (centres unmarked) [Ia-202]
4. Cc1cc(C(=O)NC(C)C)ccc1NC(=O)C1CCC(NS(=O)(=O)C(C)(C)C)CC1 (centres unmarked) [Ia-201]
5. CCCCc1ccc(NC(=O)CCCCNS(=O)(=O)C(C)CC)cc1 (centres unmarked) [Compound I-111]
6. CN(C)c1cccc(NC(=O)C2CCC(NS(=O)(=O)C(C)(C)C)CC2)c1 (centres unmarked) [Compound I-69]
7. CC(C)(C)S(=O)(=O)Nc1ccc(C(=O)Nc2ccc(-c3ncco3)cc2)cc1 [Ia-211]

// result
1. 7.60
2. 7.46
3. 8.47
4. 7.13
5. 8.21
6. 7.89
7. 6.62

Your task in this section: give pIC50 for each listed record.
1. CC(C)(C)S(=O)(=O)NC1CCC(C(=O)Nc2ccc(F)c(F)c2)CC1 (centres unmarked) [Ia-138]
2. CC(C)(C)S(=O)(=O)NC1CCC(C(=O)Nc2ccc(N3CCc4ccccc43)cc2)CC1 (centres unmarked) [Compound I-75]
3. CC(C)S(=O)(=O)NC1CCC(C(=O)Nc2ccc(OC3CCCC3)cc2)CC1 (centres unmarked) [Ia-198]

// result
[7.55, 8.47, 8.59]

// query // pIC50 lookup, key: CC(C)(C)S(=O)(=O)N[C@H]1CC[C@H](C(=O)Nc2ccc(-c3nnnn3-c3ccccc3)cc2)CC1 [Ia-71]
// result 7.92
